Provenance of the data: patent US20240327381A1

# ASSAYED_SYSTEM: IKZF1 ZNF2_ZNF3 Q1F degron-tagged CD19 CAR (Homo sapiens, UniProt Q13422, Q146F)
# Construct: ZNF2_ZNF3 Q1F degron (GERPFFCNQCGASFTQKGNLLRHIKLHSGEKPFKCHLCNYACRRRDALTGHLRTHS); fused on or other part: anti-CD19 scFv, CD28 transmembrane domain, 4-1BB costimulatory domain, CD3 zeta signaling domain (the CAR that carries the degron), and Nluc
# Sequence (Q13422 whole entry Q146F, the tested form may be a part): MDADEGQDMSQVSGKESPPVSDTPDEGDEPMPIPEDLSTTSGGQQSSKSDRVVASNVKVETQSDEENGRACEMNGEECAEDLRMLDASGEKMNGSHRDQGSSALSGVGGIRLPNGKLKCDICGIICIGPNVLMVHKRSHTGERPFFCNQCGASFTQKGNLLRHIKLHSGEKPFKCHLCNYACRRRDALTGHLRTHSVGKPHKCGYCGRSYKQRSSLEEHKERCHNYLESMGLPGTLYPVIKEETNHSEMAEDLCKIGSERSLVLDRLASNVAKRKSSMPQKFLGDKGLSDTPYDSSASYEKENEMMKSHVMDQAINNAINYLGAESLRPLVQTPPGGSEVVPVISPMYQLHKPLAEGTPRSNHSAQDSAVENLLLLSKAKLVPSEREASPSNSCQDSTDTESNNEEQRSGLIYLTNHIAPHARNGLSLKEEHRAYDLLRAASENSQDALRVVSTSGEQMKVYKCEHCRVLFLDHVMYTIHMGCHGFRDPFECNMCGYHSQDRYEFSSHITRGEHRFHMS
# ASSAY_EXPLANATION: Degradation of Q1F degron-tagged CD19 CAR in Jurkat cells (flow cytometry of CAR levels)
# Type: cell-based
# SETUP_CONDITIONS: Ymax is the % protein degraded; Jurkat cells expressing Q1F degron-tagged CD19 CAR; 18 hours; read-out: Q1F Jurkat-YMax
Measured Dmax by item
Only the number, expressed in %, is required.

Example cases with answers are listed next.
{"columns": ["COMPOUND", "UNIT_DESCRIPTOR", "Dmax"],
 "data": [
  ["Cc1ccc(CN2CCC(c3cc4c(cc3F)C(=O)N(C3CCC(=O)NC3=O)C4)CC2)cc1 (stereo not drawn) [Compound 84]", "%", 90.3],
  ["CS(=O)(=O)Nc1cccc(CN2CCC(c3c(F)cc4c(c3F)CN(C3CCC(=O)NC3=O)C4=O)CC2)c1 (stereo not drawn) [Compound 109]", "%", 91.5],
  ["O=C1CCC(N2Cc3c(cc(F)c(C4CCN(Cc5ncccc5Br)CC4)c3F)C2=O)C(=O)N1 (stereo not drawn) [Compound 50]", "%", 88.4]
]}

Entry CN(C)c1ccc(CN2CCC(c3c(F)cc4c(c3F)CN(C3CCC(=O)NC3=O)C4=O)CC2)cc1 (stereo not drawn) [Compound 110] needs its Dmax filled in; supply it.
90.5

Entry O=C1CCC(N2Cc3c(cc(F)c(C4CCN(Cc5cccc(-n6cccn6)c5)CC4)c3F)C2=O)C(=O)N1 (stereo not drawn) [Compound 49] needs its Dmax filled in; supply it.
91

Entry Cc1cc(Br)cnc1CN1CCC(c2c(F)cc3c(c2F)CN(C2CCC(=O)NC2=O)C3=O)CC1 (stereo not drawn) [Compound 48] needs its Dmax filled in; supply it.
87.8
